# targetSystem: Neu5Ac(a2-3)Gal6S(b1-4)[Fuc(a1-3)]GlcNAc
# assayDetails: glycan array binding signal (z-score within array); higher = stronger binding
# settings: glycan notation: IUPAC condensed, linker removed
The sample as a whole holds a higher share of the strongest signals than the screen did.
Assignment: determine reported glycan array binding signal (z-score) for the given binders.
Give the figure only, with no unit attached.

Exam item: Returns the measured glycan array binding signal (z-score) for the input binder. Input: CD83 (Homo sapiens) (protein) MSRGLQLLLLSCAYSLAPATPEVKVACSEDVDLPCTAPWDPQVPYTVSWVKLLEGGEERMETPQEDHLRGQHYHQKGQNGSFDAPNERPYSLKIRNTTSCNSGTYRCTLQDPDGQRNLSGKVILRVTGCPAQRKEETFKKYRAETSEQKLISEEDLSRGSDDDDKAEPRGP
Marked response: -0.131

Exam item: // next record CLEC5A (Homo sapiens), Q9NY25 (protein) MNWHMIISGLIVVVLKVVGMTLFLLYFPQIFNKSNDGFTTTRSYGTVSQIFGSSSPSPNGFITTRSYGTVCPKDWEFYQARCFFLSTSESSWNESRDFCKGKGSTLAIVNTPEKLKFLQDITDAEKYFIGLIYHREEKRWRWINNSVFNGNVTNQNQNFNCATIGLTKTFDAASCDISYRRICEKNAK
Marked response: 0.366

Exam item: // next record CCL1 (Coprinopsis cinerea) (protein) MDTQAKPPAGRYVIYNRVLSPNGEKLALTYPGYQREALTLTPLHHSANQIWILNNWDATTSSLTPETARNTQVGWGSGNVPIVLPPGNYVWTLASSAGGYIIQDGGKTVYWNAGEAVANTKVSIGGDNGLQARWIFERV
Marked response: 1.5
